# Test system: platelet aggregation induced by PAF
# ASSAY_TEXT: PAF-induced platelet aggregation inhibition (method of Born, aggregometer, platelet rich plasma)
# Format: cell-based
# CONDITION: in vitro, rabbit PRP 50-55×10^4 /μl, 37° C., PAF C16 final 20 nM added 2 minutes after compound; read-out: IC50 (concentration of the test compounds which inhibit 50% platelet aggregation)
MEASURE_NAME: IC50

Return reported IC50; argument: CCCCCCCCCCCCCCCCCCNC(=O)OCC(CNS(=O)(=O)CCCC[n+]1ccc2ccccc2c1)OC (stereo not shown) 16 µM

Reference source for all entries: patent US5138067A
